# study-system: T1, CRBN, Q96SW2;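 further: pooled lentiviral library of zinc finger degron-EGFP fusions in mCherry-positive Jurkat cells, FACS-sorted after compound exposure, with degron abundance counted by next-generation sequencing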
# T1 chain: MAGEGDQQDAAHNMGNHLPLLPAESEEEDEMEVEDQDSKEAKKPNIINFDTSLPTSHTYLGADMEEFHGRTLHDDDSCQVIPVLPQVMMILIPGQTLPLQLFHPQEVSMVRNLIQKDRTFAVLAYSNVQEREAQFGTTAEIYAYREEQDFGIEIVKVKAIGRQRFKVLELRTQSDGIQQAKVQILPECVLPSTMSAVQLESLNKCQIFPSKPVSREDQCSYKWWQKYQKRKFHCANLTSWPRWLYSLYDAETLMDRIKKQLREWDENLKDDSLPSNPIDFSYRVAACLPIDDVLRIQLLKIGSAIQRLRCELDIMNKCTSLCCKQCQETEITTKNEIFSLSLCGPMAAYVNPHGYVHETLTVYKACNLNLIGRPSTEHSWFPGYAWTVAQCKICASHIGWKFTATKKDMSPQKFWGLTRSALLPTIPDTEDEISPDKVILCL
# protocol-description: log2 fold change of degron read counts, EGFP-low vs EGFP+ sorted cells (limma voom), compound-induced degradation; higher = more compound-induced degradation of the degron-EGFP fusion; degrons are variants of IKZF1/3 zinc finger 2; compound dose not given here
# setup-conditions: Jurkat; 18 h; compound: compound 22 (5-morpholino-thalidomide)
The full ranking holds about 8,300 sequences; the median of “log2 fold change of degron read counts, EGFP-low vs EGFP+ sorted cells (limma voom), compound-induced degradation” is about -1.1, and the highest 2% start at about 3.2. Shown is part of a subset that was picked to be rich in the highest values.
attribute-measured: log2 fold change of degron read counts
One number for each entry.

Example results:
# residues, log2 fold change of degron read counts
data = [
    ("FLCPICGASFTQKGNLLRHIKL [46F_47L_49P_50I_52G_53A_54S_55F_67L_, Q9UKT9]", 0.569),
    ("FYCPICGASFTQKGNLLRHIKL [46F_47Y_49P_50I_52G_53A_54S_55F_67L_, Q9UKT9]", 3.43),
    ("FQCDICGASFTQKGNLLRHIKL [46F_47Q_49D_50I_52G_53A_54S_55F_67L_, Q9UKT9]", 1.92),
    ("FNCEVCGAMFTQKGNLLRHIKL [46F_47N_49E_50V_52G_53A_54M_55F_67L_, Q9UKT9]", -0.745),
    ("FQCEVCGAMFTQKGNLLRHIKL [46F_47Q_49E_50V_52G_53A_54M_55F_67L_, Q9UKT9]", 2.11),
    ("FLCEVCGASFTQKGNLLRHIKL [46F_47L_49E_50V_52G_53A_54S_55F_67L_, Q9UKT9]", -0.285),
]

List reported log2 fold change of degron read counts for each of these sequences:
1. FECDICGASFTQKGNLLRHIKL [46F_47E_49D_50I_52G_53A_54S_55F_67L_, Q9UKT9]
2. FSCEVCGAPFTQKGNLLRHIKL [46F_47S_49E_50V_52G_53A_54P_55F_67L_, Q9UKT9]
3. FNCEVCGASFTQKGNLLRHIKL [46F_47N_49E_50V_52G_53A_54S_55F_67L_, Q9UKT9]
4. FDCNVCGALFTQKGNLLRHIKL [46F_47D_49N_50V_52G_53A_54L_55F_67L_, Q9UKT9]
5. LTCEICGFDCTQKGNLLRHIKL [46L_47T_49E_50I_52G_53F_54D_55C_67L_, Q9UKT9]

-2.24
2.01
1.38
-2.67
-2.7
